- EXPERIMENTAL TARGET: Bovine trypsin (Bos taurus, UniProt P00760)
- Construct: Bovine trypsin is purchased; purchased Worthington Biochemicals, Freehold, N.J
- Sequence (P00760 24-246): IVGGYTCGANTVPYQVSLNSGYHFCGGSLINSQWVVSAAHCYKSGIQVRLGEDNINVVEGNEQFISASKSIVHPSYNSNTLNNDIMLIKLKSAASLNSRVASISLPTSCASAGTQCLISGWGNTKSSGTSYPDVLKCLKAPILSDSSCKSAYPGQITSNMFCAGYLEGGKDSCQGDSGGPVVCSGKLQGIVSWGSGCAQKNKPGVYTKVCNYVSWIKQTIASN
- ASSAY PROCEDURE: Kass with trypsin, chromogenic substrate
- Format: biochemical
- CONDITIONS: substrate N-Benzoyl-Phe-Val-Arg-p-nitroanilide
Where a name gives a salt, the structure may show the parent alone.
This listing pairs compounds with measured Kass Trypsin.

>  <COMPOUND>
Nc1ccc(CNC(=O)[C@@H]2CCCN2C(=O)[C@H](N)Cc2ccccc2)cc1 [Example 13, D-Phe-Pro-p-NHCH2 C6 H4 NH2.HCl]

>  <Kass Trypsin>
0.00066 × 10^6 (L/mole)

$$$$
>  <COMPOUND>
N=C(N)N1CC=C(CNC(=O)[C@@H]2CCCN2C(=O)[C@@H](CC2CCCCC2)NCC(=O)O)CC1

>  <Kass Trypsin>
9.8 × 10^6 (L/mole)

$$$$
>  <COMPOUND>
N=C(N)c1ccc(CNC(=O)[C@@H]2CCCN2C(=O)[C@H](N)CC2CCCCC2)cc1 [Example 51, D-Cha-Pro-p-NHCH2 C6 H4 C(NH)NH2.2HCl]

>  <Kass Trypsin>
27 × 10^6 (L/mole)

$$$$
>  <COMPOUND>
N=C(N)c1cccc(CCNC(=O)[C@@H]2CCCN2C(=O)[C@@H]2NCC[C@@H]3CCCC[C@@H]32)c1

>  <Kass Trypsin>
0.02 × 10^6 (L/mole)

$$$$
>  <COMPOUND>
N=C(N)c1cccc(CCCNC(=O)[C@@H]2CCCN2C(=O)[C@@H]2NCC[C@@H]3CCCC[C@@H]32)c1

>  <Kass Trypsin>
0.02 × 10^6 (L/mole)

$$$$
>  <COMPOUND>
O=C(O)CN[C@H](CC1CCCCC1)C(=O)N1CCC[C@H]1C(=O)NCCC1CCNCC1

>  <Kass Trypsin>
0.52 × 10^6 (L/mole)

$$$$
>  <COMPOUND>
CCOC(=O)N[C@H](Cc1ccccc1)C(=O)N1CCC[C@H]1C(=O)NCCCCNC(=N)N [Example 3, EtOCO-D-Phe-Pro-Agm.HCl]

>  <Kass Trypsin>
0.24 × 10^6 (L/mole)

$$$$
>  <COMPOUND>
N=C(N)Nc1ccc(CNC(=O)[C@@H]2CCCN2C(=O)[C@@H]2NCC[C@@H]3CCCC[C@@H]32)cc1

>  <Kass Trypsin>
0.07 × 10^6 (L/mole)

$$$$
>  <COMPOUND>
CCS(=O)(=O)N[C@H](CC1CCCCC1)C(=O)N1CCC[C@H]1C(=O)NCc1ccc(N)nc1

>  <Kass Trypsin>
0.07 × 10^6 (L/mole)

$$$$
>  <COMPOUND>
N=C(N)N1CCC(CNC(=O)[C@@H]2CCCN2C(=O)[C@@H](CC2CCCCC2)NCC(=O)O)CC1

>  <Kass Trypsin>
3.6 × 10^6 (L/mole)

$$$$
>  <COMPOUND>
N=C(N)Nc1ccc(CCNC(=O)[C@@H]2CCCN2C(=O)[C@@H]2NCC[C@@H]3CCCC[C@@H]32)cc1

>  <Kass Trypsin>
< 0.02 × 10^6 (L/mole)

$$$$
>  <COMPOUND>
O=C(O)CN[C@H](CC1CCCCC1)C(=O)N1CCC[C@H]1C(=O)NCC1CCNCC1

>  <Kass Trypsin>
0.1 × 10^6 (L/mole)

$$$$
>  <COMPOUND>
NCc1cccc(CNC(=O)[C@@H]2CCCN2C(=O)[C@H](N)Cc2ccccc2)c1 [Example 11, D-Phe-Pro-m-NHCH2 C6 H4 CH2 NH2.HCl]

>  <Kass Trypsin>
0.0036 × 10^6 (L/mole)

$$$$
>  <COMPOUND>
CCS(=O)(=O)N[C@H](Cc1ccccc1)C(=O)N1CCC[C@H]1C(=O)NCCc1ccc(NC(=N)N)cc1

>  <Kass Trypsin>
0.04 × 10^6 (L/mole)

$$$$

Measured values drawn from patent US5707966A for this set.
